Reference for the values: paper PMC7826789

Tested on: HPK1
Construct: gene MAP4K1
details: Compound Concentration (nM):1000;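 note: KINOMEscan scanMAX binding as percent activity remaining versus control; lower means stronger binding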
One threshold, 90%, splits the recorded Percent Control values: lower ones are T, equal or higher ones are F.

• Cc1cc(O)cc(C)c1/C=C/c1cncc(C(N)=O)c1 [GW435821X] = F
• Cl.O=C(Nc1ccc(Oc2ccc3[nH]c(NC(=O)c4ccco4)nc3c2)cc1)Nc1cc(C(F)(F)F)ccc1F [GW683134A] = T
• CCS(=O)(=O)c1ccc(OC)c(Nc2ncc(-c3cccc(F)c3)o2)c1 [GW621970X] = F
• COc1ccc2c(-c3ccnc(Nc4cccc(OC(F)(F)F)c4)n3)cnn2n1 [GW810372X] = T
• NS(=O)(=O)c1ccc(N/N=C2\C(=O)Nc3ccc(C(=O)NCc4ccncc4)cc32)cc1 [GW300657X] = T
• CN(C)CCNC(=O)Nc1ccc(N(C)c2ccnc(Nc3ccc(CS(C)(=O)=O)cc3)n2)cc1.Cl [GW830900A] = T
• COc1cc(C=NNc2ncnc3c2cnn3-c2ccccc2)ccc1O [GW513184X] = F
• Nc1ncnc2occ(-c3ccc(NC(=O)Nc4cc(C(F)(F)F)ccc4F)cc3)c12 [GW770249X] = T

--- query ---
## Input I'd appreciate it if you could check whether CC1=C(C(=O)Nc2ccc3[nH]ncc3c2)C(c2ccc(Cl)c(Cl)c2)CC(=O)N1 (centres unmarked) [GSK299115A] has Percent Control smaller than 90%.
## Output F

* * *

This section presents compounds with their documented Percent Control values.
Tested on: p38-beta
Construct: gene MAPK11
details: Compound Concentration (nM):1000
// note: answer is a bare numeric in %

* Cl.O=C(O[C@H]1CN[C@H](C#Cc2cc3ncnc(Nc4ccc5c(cnn5Cc5ccccc5)c4)c3s2)C1)N1CCOCC1 [GSK200398A] | 100
* COC(=O)Nc1nc2ccc(Oc3ccc(NC(=O)Nc4cc(C(F)(F)F)ccc4F)cc3)cc2s1.Cl [GW693917A] | 10
* CC1=C(C(=O)Nc2ccc3[nH]ncc3c2)C(c2ccc3ccccc3c2)CC(=O)N1 (centres unmarked) [GSK270822A] | 100
* O=C(Nc1n[nH]c2nc(-c3ccc(O)cc3)c(Br)cc12)C1CC1 | 74
* COc1cc2ncnc(Nc3ccc4c(cnn4Cc4ccccc4)c3)c2cc1OC.Cl [GW282449A] | 100
* NS(=O)(=O)c1ccc(N/N=C2\C(=O)Nc3ccc(-c4cnco4)cc32)cc1 | 100
* CN(C)c1cc2c(Nc3ccc4c(cnn4Cc4ccccc4)c3)ncnc2cn1 [GW282974X] | 100

Shift focus to the following entry.
Entry CCS(=O)(=O)c1ccc(OC)c(Nc2ncc(-c3cccc(OC)c3)o2)c1 [GW580509X] ; Percent Control = 100

* * *

System: PIK3CA(E545A)
details: Compound Concentration (nM):1000
This section presents compounds with their documented Percent Control values.
// note: answer is a bare numeric in %

Examples with their reported Percent Control follow.
- Cl.O=S1CCN(Cc2ccc(-c3ccc4ncnc(Nc5ccc(OCc6ccccc6)c(F)c5)c4c3)o2)CC1 [GW576924A]: 100
- Cl.c1ccc(Cc2nc3ccc(Nc4ncnc5ccccc45)cc3[nH]2)cc1 [GR269666A]: 100

Entry O=C(Nc1n[nH]c2nc(-c3ccc(O)cc3)c(Br)cc12)C1CC1 ; Percent Control = 100

* * *

Test system: STK33
details: Compound Concentration (nM):1000
endpoint.name: Percent Control (%)
// note: answer is a bare numeric in %

Examples with their reported Percent Control follow.
* Cl.O=S1CCN(Cc2ccc(-c3ccc4ncnc(Nc5ccc(OCc6ccccc6)c(F)c5)c4c3)o2)CC1 [GW576924A] | 84
* CCc1ccc(Oc2nccc(-c3c(-c4ccc(F)cc4)ncn3C3CCNCC3)n2)cc1 | 92

Entry O=C(Nc1n[nH]c2nc(-c3ccc(O)cc3)c(Br)cc12)C1CC1 ; Percent Control = 96

Entry CCS(=O)(=O)c1ccc(OC)c(Nc2ncc(-c3cccc(OC)c3)o2)c1 [GW580509X] ; Percent Control = 100

Entry NS(=O)(=O)c1ccc(N/N=C2\C(=O)Nc3ccc(C(=O)NCc4ccncc4)cc32)cc1 [GW300657X] ; Percent Control = 87

Entry COC(=O)Nc1nc2ccc(Oc3ccc(NC(=O)Nc4cc(C(F)(F)F)ccc4F)cc3)cc2s1.Cl [GW693917A] ; Percent Control = 44

Entry NS(=O)(=O)c1ccc(N/N=C2\C(=O)Nc3ccc(C(=O)NCCc4c[nH]cn4)cc32)cc1 [GW300660X] ; Percent Control = 67

Entry COc1ccc(COc2ccc(Cc3cnc(N)nc3N)cc2OC)cc1 [GW632580X] ; Percent Control = 100

Entry CC(C)COC(=O)c1ccc2c(c1)/C(=C/Nc1ccc(S(N)(=O)=O)cc1)C(=O)N2 [GW416981X] ; Percent Control = 24

Entry COc1ccccc1-c1cc(/C=C2\C(=O)Nc3ncc(Br)cc32)cc(Br)c1O [GW442130X] ; Percent Control = 100

Entry NS(=O)(=O)c1ccc(Nc2ncc(-c3ccccc3)o2)cc1 [GW572399X] ; Percent Control = 100

Entry COc1cc(C=NNc2ncnc3c2cnn3-c2ccccc2)ccc1O [GW513184X] ; Percent Control = 100

Entry Cl.c1ccc(Cc2nc3ccc(Nc4ncnc5ccccc45)cc3[nH]2)cc1 [GR269666A] ; Percent Control = 97

Entry Cl.O=C(O[C@H]1CN[C@H](C#Cc2cc3ncnc(Nc4ccc5c(cnn5Cc5ccccc5)c4)c3s2)C1)N1CCOCC1 [GSK200398A] ; Percent Control = 90

Entry COc1cc(N2CCN(C(C)C)CC2)ccc1Nc1nc(Nc2ccc(F)cc2C(=O)NC[C@@H](O)CO)c2cc[nH]c2n1 [GSK1392956A] ; Percent Control = 1.5

Entry Cl.O=C(Nc1ccc(Oc2ccc3[nH]c(NC(=O)c4ccccc4)nc3c2)cc1)Nc1cc(C(F)(F)F)ccc1F [GW709042A] ; Percent Control = 29

Entry CC1=C(C(=O)Nc2ccc3[nH]ncc3c2)C(c2ccc3ccccc3c2)CC(=O)N1 (stereo not shown) [GSK270822A] ; Percent Control = 95

Entry Nc1ncnc2occ(-c3ccc(NC(=O)Nc4cc(C(F)(F)F)ccc4F)cc3)c12 [GW770249X] ; Percent Control = 11

Entry COc1cc2ncnc(Nc3ccc4c(cnn4Cc4ccccc4)c3)c2cc1OC.Cl [GW282449A] ; Percent Control = 98

Entry NS(=O)(=O)c1ccc(N/N=C2\C(=O)Nc3ccc(-c4cnco4)cc32)cc1 ; Percent Control = 100

* * *

System: NEK9
details: Compound Concentration (nM):1000
This section presents compounds with their documented Percent Control values.
// note: answer is a bare numeric in %

Entry NS(=O)(=O)c1ccc(N/N=C2\C(=O)Nc3ccc(C(=O)NCc4ccncc4)cc32)cc1 [GW300657X] ; Percent Control = 64

Entry CC1=C(C(=O)Nc2ccc3[nH]ncc3c2)C(c2ccc3ccccc3c2)CC(=O)N1 (stereo not shown) [GSK270822A] ; Percent Control = 70

Entry COc1cc(C=NNc2ncnc3c2cnn3-c2ccccc2)ccc1O [GW513184X] ; Percent Control = 100

Entry COc1cc(N2CCN(C(C)C)CC2)ccc1Nc1nc(Nc2ccc(F)cc2C(=O)NC[C@@H](O)CO)c2cc[nH]c2n1 [GSK1392956A] ; Percent Control = 100

* * *

Tested on: MYLK
details: Compound Concentration (nM):1000
This section presents compounds with their documented Percent Control values.
// note: answer is a bare numeric in %

Examples with their reported Percent Control follow.
• COc1cccc(-n2ncc3c(N/N=C/c4ccncc4)ncnc32)c1 [GW784752X] = 89
• NS(=O)(=O)c1ccc(N/N=C2\C(=O)Nc3ccc(Cl)cc32)cc1 [GW280670X] = 80
• COc1cc(N2CCN(C(C)C)CC2)ccc1Nc1nc(Nc2ccc(F)cc2C(=O)NC[C@@H](O)CO)c2cc[nH]c2n1 [GSK1392956A] = 0.3
• COc1ccc(COc2ccc(Cc3cnc(N)nc3N)cc2OC)cc1 [GW632580X] = 100
• CN(C)c1cc2c(Nc3ccc4c(cnn4Cc4ccccc4)c3)ncnc2cn1 [GW282974X] = 100
• Cl.O=C(Nc1ccc(Oc2ccc3[nH]c(NC(=O)c4ccco4)nc3c2)cc1)Nc1cc(C(F)(F)F)ccc1F [GW683134A] = 100
• C/C(Nc1ccc(S(N)(=O)=O)cc1)=C1/C(=O)Nc2ccccc21 [GW335962X] = 70

Shift focus to the following entry.
Entry COc1ccc2cc(-c3c(-c4ccncc4)nc(-c4ccc(S(C)(=O)=O)cc4C)n3C)ccc2c1 ; Percent Control = 82

* * *

System: TNK2
details: Compound Concentration (nM):1000
This section presents molecules with their documented Percent Control values.
// note: answer is a bare numeric in %

Entry Cc1cc(O)cc(C)c1/C=C/c1cncc(C(N)=O)c1 [GW435821X] ; Percent Control = 100

Entry CCS(=O)(=O)c1ccc(OC)c(Nc2ncc(-c3cccc(OC)c3)o2)c1 [GW580509X] ; Percent Control = 100

Entry CC(C)COC(=O)c1ccc2c(c1)/C(=C/Nc1ccc(S(N)(=O)=O)cc1)C(=O)N2 [GW416981X] ; Percent Control = 100

Entry COc1cccc(-c2c[nH]c3c(N/N=C/c4ccncc4)ncnc23)c1 [GW814408X] ; Percent Control = 100

Entry COc1ccc2c(-c3ccnc(Nc4cccc(OC(F)(F)F)c4)n3)cnn2n1 [GW810372X] ; Percent Control = 100

Entry NS(=O)(=O)c1ccc(N/N=C2\C(=O)Nc3ccc(C(=O)NCc4ccncc4)cc32)cc1 [GW300657X] ; Percent Control = 100

Entry CCS(=O)(=O)c1ccc(OC)c(Nc2ncc(-c3cccc(F)c3)o2)c1 [GW621970X] ; Percent Control = 90

Entry C/C(Nc1ccc(S(N)(=O)=O)cc1)=C1/C(=O)Nc2ccccc21 [GW335962X] ; Percent Control = 100

Entry CC1=C(C(=O)Nc2ccc3[nH]ncc3c2)C(c2ccc(Cl)c(Cl)c2)CC(=O)N1 (stereo not drawn) [GSK299115A] ; Percent Control = 79
